Below, each of the compounds is paired with its reported MIC value.
tested on: Candida albicans; assay: Antifungal activity against Candida albicans MSU-SM 543 after 2 to 4 days; type: functional

Compound	System Name	MIC (µg/mL)
Clc1ccc(COC(Cn2ccnc2)c2ccc(Cl)cc2Cl)c(Cl)c1 (stereo not given) [MICONAZOLE]	Candida albicans	1
C[C@@H]1[C@H](O)[C@@H](C)/C=C/C=C/C=C/C=C/C=C/C=C/C=C/[C@H](O[C@@H]2O[C@H](C)[C@@H](O)[C@H](N)[C@@H]2O)C[C@@H]2O[C@](O)(C[C@@H](O)C[C@@H](O)[C@H](O)CC[C@@H](O)C[C@@H](O)CC(=O)O[C@H]1C)C[C@H](O)[C@H]2C(=O)O [AMPHOTERICIN B]	Candida albicans	3.2
Clc1ccccc1C(c1ccccc1)(c1ccccc1)n1ccnc1 [CLOTRIMAZOLE]	Candida albicans	1
CC(=O)N1CCN(c2ccc(OCC3COC(Cn4ccnc4)(c4ccc(Cl)cc4Cl)O3)cc2)CC1 (stereo not given) [KETOCONAZOLE]	Candida albicans	0.5
C[C@@H]1C/C=C/C=C/C=C/C=C/[C@H](O[C@@H]2O[C@H](C)[C@@H](O)[C@H](N)[C@@H]2O)C[C@@H]2O[C@](O)(C[C@@H](O)C[C@H]3O[C@@H]3/C=C/C(=O)O1)C[C@H](O)[C@H]2C(=O)O [NATAMYCIN]	Candida albicans	5.5
